- Test system: Streptococcus pneumoniae
- assay: Antimicrobial activity against Streptococcus pneumoniae
- Format: functional
quantity name: MIC90 (µg/mL)

molecule: O=CN(O)C[C@@H](CC1CCCC1)C(=O)N1NCCC[C@H]1C(=O)Nc1ccc(F)cn1
unit text: µg/mL
assay result: 2

molecule: Cc1nc(NNC(=O)[C@H](CC2CCCC2)CN(O)C=O)c(F)c(N2CCN3CCOC[C@@H]3C2)n1
unit text: µg/mL
assay result: 1

molecule: CN1CCN(c2cc(NC(=O)[C@@H]3CCCNN3C(=O)[C@H](CC3CCCC3)CN(O)C=O)ncn2)CC1
unit text: µg/mL
assay result: 0.25

molecule: O=CN(O)C[C@@H](CC1CCCC1)C(=O)N1NCCC[C@H]1C(=O)Nc1ccncn1
unit text: µg/mL
assay result: 2

molecule: Cc1ccnc(NC(=O)[C@@H]2CCCNN2C(=O)[C@H](CC2CCCC2)CN(O)C=O)c1
unit text: µg/mL
assay result: 1
